assay.name: in vivo
Design: species or system dogs
measurement.setup: dog, po, 12.5 mg/kg, AUC0-infinity
measured.attribute: AUC(0-inf) (ng·h/mL)

In [3]: df
Out[3]:
                                   molecule  endpoint_unit  value
0  O=C(O)CCCCC1CCSS1 (racemic) [lipoic acid, dl-alpha-lipoic acid]        ng·h/mL   1240
